Recorded measurements of EC50, one per entry
Target: KATP channels (Homo sapiens, UniProt O60706+Q14654)
Construct: TE671 human medulloblastoma cells were obtained from ATCC
Sequence (O60706 1-1549 isoform O60706-2): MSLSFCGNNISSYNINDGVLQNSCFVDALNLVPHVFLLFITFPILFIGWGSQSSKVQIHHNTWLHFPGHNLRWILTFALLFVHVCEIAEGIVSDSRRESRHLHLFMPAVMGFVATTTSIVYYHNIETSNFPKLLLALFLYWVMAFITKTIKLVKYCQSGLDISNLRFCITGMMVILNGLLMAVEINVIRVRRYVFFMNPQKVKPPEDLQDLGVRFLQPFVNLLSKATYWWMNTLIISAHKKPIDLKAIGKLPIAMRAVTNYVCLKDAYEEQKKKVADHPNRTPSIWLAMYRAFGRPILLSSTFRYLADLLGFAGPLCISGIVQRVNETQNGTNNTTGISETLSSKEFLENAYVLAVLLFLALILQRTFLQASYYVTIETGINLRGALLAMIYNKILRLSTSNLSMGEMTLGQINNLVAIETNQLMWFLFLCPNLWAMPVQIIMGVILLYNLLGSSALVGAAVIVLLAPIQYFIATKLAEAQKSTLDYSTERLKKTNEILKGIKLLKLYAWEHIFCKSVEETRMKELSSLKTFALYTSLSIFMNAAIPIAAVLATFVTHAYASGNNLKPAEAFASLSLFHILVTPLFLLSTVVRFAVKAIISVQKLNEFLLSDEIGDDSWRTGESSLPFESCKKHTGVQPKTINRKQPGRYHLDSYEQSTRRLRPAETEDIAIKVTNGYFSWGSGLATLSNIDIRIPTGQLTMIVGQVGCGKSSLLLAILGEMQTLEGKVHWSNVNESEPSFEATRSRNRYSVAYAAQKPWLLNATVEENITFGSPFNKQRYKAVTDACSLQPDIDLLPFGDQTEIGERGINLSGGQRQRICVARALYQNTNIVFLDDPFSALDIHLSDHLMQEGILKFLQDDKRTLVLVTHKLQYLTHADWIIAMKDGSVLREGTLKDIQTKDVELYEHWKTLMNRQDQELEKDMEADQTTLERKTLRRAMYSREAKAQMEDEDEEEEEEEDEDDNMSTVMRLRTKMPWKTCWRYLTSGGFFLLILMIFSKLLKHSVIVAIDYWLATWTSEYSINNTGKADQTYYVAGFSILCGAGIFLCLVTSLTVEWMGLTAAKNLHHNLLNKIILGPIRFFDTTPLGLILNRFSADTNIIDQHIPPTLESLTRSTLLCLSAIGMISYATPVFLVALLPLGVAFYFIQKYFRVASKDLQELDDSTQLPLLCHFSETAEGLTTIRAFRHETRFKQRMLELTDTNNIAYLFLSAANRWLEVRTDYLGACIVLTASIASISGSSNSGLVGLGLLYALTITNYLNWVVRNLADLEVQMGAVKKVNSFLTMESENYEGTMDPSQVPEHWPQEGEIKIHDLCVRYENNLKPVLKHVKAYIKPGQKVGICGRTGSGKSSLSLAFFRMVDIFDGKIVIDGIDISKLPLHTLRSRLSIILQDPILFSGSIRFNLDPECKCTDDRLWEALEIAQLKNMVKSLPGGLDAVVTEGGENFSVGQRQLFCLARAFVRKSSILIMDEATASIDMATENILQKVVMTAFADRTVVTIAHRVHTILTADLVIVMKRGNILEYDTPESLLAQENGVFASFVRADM
Sequence (Q14654 whole entry): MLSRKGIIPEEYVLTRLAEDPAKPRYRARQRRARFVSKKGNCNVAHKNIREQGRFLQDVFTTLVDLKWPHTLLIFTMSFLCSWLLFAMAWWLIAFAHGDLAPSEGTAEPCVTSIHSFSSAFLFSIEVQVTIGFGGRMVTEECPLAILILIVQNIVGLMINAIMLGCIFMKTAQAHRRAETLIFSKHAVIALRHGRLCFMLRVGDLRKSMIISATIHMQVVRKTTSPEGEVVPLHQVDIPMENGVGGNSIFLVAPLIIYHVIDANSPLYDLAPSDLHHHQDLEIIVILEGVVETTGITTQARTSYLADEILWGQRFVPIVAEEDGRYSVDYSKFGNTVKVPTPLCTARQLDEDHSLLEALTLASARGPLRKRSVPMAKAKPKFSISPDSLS
Assay: Potassium Channel Assay (FLIPR membrane potential, TE671 cells)
Conditions: TE671 human medulloblastoma cells, Membrane Potential Assay Dye, room temperature, hyperpolarization from KATP channel opening

Check out these entries, answers already filled in.
CCN(CC)S(=O)(=O)c1ccc2c(c1)[C@@H](Nc1noc3cc(Cl)ccc13)[C@H](O)C(C)(C)O2 [Compound 81] : 13.6 µM
CC1(C)Oc2ccc(S(=O)(=O)c3ccccc3)cc2[C@@H](Oc2noc3cc(Cl)ccc23)[C@@H]1O [Compound 77] : > 30 µM
CC1(C)Oc2ccc(S(=O)(=O)N3CCCCC3)cc2[C@@H](Nc2noc3ccc(Cl)cc23)[C@@H]1O [Compound 88] : > 30 µM
CC1(C)Oc2ccc(C#N)cc2[C@@H](S(=O)(=O)c2ncc[nH]2)C1O (stereo in doubt) [Compound 71] : > 30 µM
CC1(C)Oc2ccc(C#N)cc2[C@@H](N2CCN(c3ccc([N+](=O)[O-])cc3)CC2)[C@@H]1O (racemic) [Compound 51] : > 30 µM

Measured EC50 of CC1(C)Oc2ccc(C#N)cc2[C@@H](n2oc3cc(Cl)ccc3c2=O)[C@@H]1O [Compound 117] : > 30 µM
